Value source: patent US12447159B2

Assay: Metabolic stability in dog liver microsomes (DLM)
Assay type: in vitro ADME
Settings: dog LM, NADPH
OBSERVED_PROPERTY: half-life (min)
Just the number in min, nothing appended.

Q: // fetch half-life given entry COc1ccc(CO[C@H]2CC[C@@]3(C)C(=CC[C@H]4[C@@H]5CC[C@H](C(C)=O)[C@@]5(C)CC[C@@H]43)C2)cc1 [3pMBP, 3β-(4-methoxybenzyloxy)pregn-5-en-20-one]
Ans: 53.4

====

Experiment: Pharmacokinetics in plasma of dogs (LC/MS-MS)
Assay type: in vivo
Conditions: both sexes, dog, plasma, oral, 0.7 mg/kg, read-out: bioavailability
OBSERVED_PROPERTY: bioavailability

Q: // fetch bioavailability given entry COc1ccc(CO[C@H]2CC[C@@]3(C)C(=CC[C@H]4[C@@H]5CC[C@H](C(C)=O)[C@@]5(C)CC[C@@H]43)C2)cc1
Ans: ~68%

====

Experiment: Metabolic stability in human liver microsomes (HLM)
Assay type: in vitro ADME
Conditions: human LM, NADPH, read-out: intrinsic clearance
OBSERVED_PROPERTY: microsomal CLint (µL/min/mg)
Just the number in µL/min/mg, nothing appended.

Q: // fetch microsomal CLint given entry COc1ccc(CO[C@H]2CC[C@@]3(C)C(=CC[C@H]4[C@@H]5CC[C@H](C(C)=O)[C@@]5(C)CC[C@@H]43)C2)cc1
Ans: 3.38

====

Target: 85 receptors (CEREP High-throughput profile+4 steroid receptors+Cannabinoid type 2 receptor)
Assay: CEREP High-throughput binding profile (85 receptors)
Conditions: receptor binding, 85 receptors; read-out: ID50 (the source's name)
OBSERVED_PROPERTY: IC50

Q: // fetch IC50 given entry COc1ccc(CO[C@H]2CC[C@@]3(C)C(=CC[C@H]4[C@@H]5CC[C@H](C(C)=O)[C@@]5(C)CC[C@@H]43)C2)cc1 [3pMBP, 3β-(4-methoxybenzyloxy)pregn-5-en-20-one]
Ans: > 10 µM

====

Assay: Pharmacokinetics in plasma of dogs (LC/MS-MS)
Assay type: in vivo
Details: both sexes, dog, po, per os, 0.7 mg/kg, plasma, read-out: Tmax
OBSERVED_PROPERTY: Tmax

Q: // fetch Tmax given entry COc1ccc(CO[C@H]2CC[C@@]3(C)C(=CC[C@H]4[C@@H]5CC[C@H](C(C)=O)[C@@]5(C)CC[C@@H]43)C2)cc1
Ans: ~3 h
